Origin of the recorded values: paper PMC11969024

Listing of entries alongside the reported enrichment.
B1: peptide HD2 (from tick evasin EVA4) / CXCL13 (biotinylated, synthetic) (parent)
chain 1: EEDDYTAYAPLTCYFT
chain 2: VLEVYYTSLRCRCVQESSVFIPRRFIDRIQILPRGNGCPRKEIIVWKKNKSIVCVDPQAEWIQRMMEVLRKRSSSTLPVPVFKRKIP

variants of: B1; settings: with CXCL13 (biotinylated, synthetic); scale: log2
No unit in the answer, only the number.

// known answers, use as guide
chain 1 L11D | -7.86
chain 1 Y14I | -6.05
chain 1 C13D | -7.93

Input: Fill blank: measured enrichment of the variant chain 1 E2R is ____.
Output: -5.9

Input: Fill blank: measured enrichment of the variant chain 1 P10R is ____.
Output: -7.85
